target: Human CXCR3 (N-delta 4) (Homo sapiens, UniProt P49682); construct: CD8 leader (N); Flag; membrane preparation; test: Human CXCR3 (N-delta 4) Scintillation Proximity Assay (SPA), [125I] IP-10 binding; conditions: rating; 25 pM [125I] IP-10, Ba/F3-hCXCR3 (N-delta 4) membranes, 3 hr room temperature
Sequence (P49682 5-368 limits assumed): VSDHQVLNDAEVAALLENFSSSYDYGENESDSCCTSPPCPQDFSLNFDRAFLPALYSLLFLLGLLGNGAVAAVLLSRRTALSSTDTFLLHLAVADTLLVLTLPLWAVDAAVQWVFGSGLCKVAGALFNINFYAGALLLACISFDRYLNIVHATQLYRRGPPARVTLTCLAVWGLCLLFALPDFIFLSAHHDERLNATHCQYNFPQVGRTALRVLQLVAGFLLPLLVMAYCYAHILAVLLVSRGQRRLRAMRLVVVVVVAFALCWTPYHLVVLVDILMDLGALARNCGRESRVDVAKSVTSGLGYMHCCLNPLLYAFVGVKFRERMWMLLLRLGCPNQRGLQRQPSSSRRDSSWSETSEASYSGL
Readout Label: Ki

Batch: Ki for all items listed.
1. CC[C@H]1CN(c2cnc(C#N)cc2C)CCN1C1CCN(C(=O)c2ccc(Cl)cc2)CC1
2. CCNC(=O)c1ccc(N2CCN(C3CCN(Cc4ccc(Cl)cc4)CC3)[C@@H](CC)C2)c(C)n1
3. CC[C@H]1CN(c2ccc(CO)nc2C)CCN1C1CCN(C(=O)c2ccc(Cl)cc2)CC1
4. CC[C@H]1CN(c2ccc(C(=O)NC3CC3)nc2C)CCN1C1CCN(C(=O)c2ccc(Cl)c(F)c2)CC1
5. CC[C@H]1CN(c2ccc(C(=O)NC3CC3)nc2C)[C@H](C)CN1C1CCN(C(=O)c2ccc(Cl)c(F)c2)CC1
6. CC[C@H]1CN(c2ccc(C(=O)NC3CC3)nc2C)CCN1C1CCN(C(=O)c2ccc(F)c(F)c2)CC1

["> 100 nM", "< 25 nM", "> 100 nM", "< 25 nM", "< 25 nM", "< 25 nM"]

Hello, please tell me recorded Ki for this one: CC[C@H]1CN(c2ccc(C(=O)NC3CC3)nc2Cl)[C@H](C)CN1C1CCN(C(=O)c2ccc(Cl)cc2)CC1
< 25 nM

----------
biological target: Human CXCR3 (N-delta 4) (Homo sapiens); construct: CD8 leader (N); Flag; expressed in transfected cells; membrane preparation; assay: Human CXCR3 (N-delta 4) Scintillation Proximity Assay (SPA), [125I] IP-10 binding; settings: rating; 25 pM [125I] IP-10, Ba/F3-hCXCR3 (N-delta 4) membranes, 3 hr room temperature
Readout Label: Ki

CC[C@H]1CN(c2ccc(C(N)=O)nc2C)CCN1C1CCN(Cc2ccc(Cl)cc2)CC1 [Compound 3]	< 0.025 µM
CC[C@H]1CN(c2ccc(C(=O)NC3CC3)nc2C)CCN1C1CCN(C(=O)c2ccc(Cl)cc2)CC1 [Compound 6]	< 0.025 µM

Batch: Ki for all items listed.
1. CC[C@H]1CN(c2ccc(C(=O)NC3CC3)nc2C(F)(F)F)[C@H](C)CN1C1CCN(C(=O)c2ccc(Cl)cc2)CC1 [Compound 11]
2. CC[C@H]1CN(c2ccc(C(N)=O)nc2C)CCN1C1CCN(C(=O)c2ccc(Cl)cc2)CC1 [Compound 10]
3. CC[C@H]1CN(c2cnc(C(N)=O)cc2C)CCN1C1CCN(C(=O)c2ccc(Cl)cc2)CC1 [Compound 14]

1: 0.025 to 0.1 µM; 2: < 0.025 µM; 3: > 0.1 µM

Batch: Ki for all items listed.
1. CC[C@H]1CN(c2ccc(C(N)=O)nc2C)CCN1C1CCN(Cc2ccc(OC(F)(F)F)cc2)CC1 [Compound 4]
2. CC[C@H]1CN(c2ccc(C(=O)NC3CC3)nc2C)CCN1C1CCN(Cc2ccc(OC(F)(F)F)cc2)CC1 [Compound 2]

1. < 0.025 µM
2. < 0.025 µM

Data origin: patent US7902199B2
